Value source: patent US20230192834A1

target: TGFβ1 (R&D Systems)
Sequence (P01137 279-390): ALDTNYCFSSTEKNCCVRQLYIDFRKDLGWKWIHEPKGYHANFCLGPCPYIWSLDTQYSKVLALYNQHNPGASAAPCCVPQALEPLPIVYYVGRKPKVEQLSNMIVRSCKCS
test.name: cell-based or functional assay
Give measured log10(TGFb1 IC50 (SMAD3 phosphorylation in CMVICs, AlphaLISA)) for each item. Keep answers brief.
log10 TGFb1 IC50 (SMAD3 phosphorylation in CMVICs, AlphaLISA), µg/mL

Briefly, log10(TGFb1 IC50 (SMAD3 phosphorylation in CMVICs, AlphaLISA)) measured for Caninized anti-TGFβ1,2,3 antibody VH5.10 - VL3 (antibody, V domains shown) VH: EVQLVESGGDLVKPGGSLRLSCVASGFTFSSNVISWVRQAPGQGLEWMGGVIPIVDIANYAQRFKGRVTLTADTSTNTVYMELSNLRTEDTAVYYCARTLGLVLDAMDYWGQGTLVTVSS VL: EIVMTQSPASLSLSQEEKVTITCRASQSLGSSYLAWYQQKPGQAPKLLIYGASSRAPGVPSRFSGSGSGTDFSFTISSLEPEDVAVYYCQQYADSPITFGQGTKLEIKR : -0.63

Briefly, log10(TGFb1 IC50 (SMAD3 phosphorylation in CMVICs, AlphaLISA)) measured for Felinized anti-TGFβ1,2,3 antibody VH3.8 - VL7 (antibody, V domains shown) VH: QVQLVQSGAEVKKPGSSVKVSCKASGYTFSSNVISWVRQAPGKGLQWVAGVIPIVDIANYAQRFKGRFTISIDNSKNTLYLQMNSLKTEDTATYYCASTLGLVLDAMDYWGQGTLVTVSS VL: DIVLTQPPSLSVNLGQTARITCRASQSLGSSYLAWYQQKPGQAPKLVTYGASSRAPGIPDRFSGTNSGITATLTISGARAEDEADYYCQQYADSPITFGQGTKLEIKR : 0.13

Briefly, log10(TGFb1 IC50 (SMAD3 phosphorylation in CMVICs, AlphaLISA)) measured for human: feline GC1008 chimera felchimGC1008 (antibody, V domains shown) VH: QVQLVQSGAEVKKPGSSVKVSCTASGYTPSSNVISNVRQAPGQGLENNGGVIPIVDIANYAQRPKGRVTITADESTSTTYHELSSLRSEDTAVYYCASTLGLVLDAMDYHGQGTLVTVSS VL: ETVLTQSPGTLSLSPGERATLSCRASQSLGSSYLAWYQQKPGQAPRLLIYGASSRAPGIPDRFSGSGSGTDFTLTISRLEPEDFAVYYCQQYADSPITFGQGTRLEIKR : -0.75

Briefly, log10(TGFb1 IC50 (SMAD3 phosphorylation in CMVICs, AlphaLISA)) measured for Felinized anti-TGFβ1,2,3 antibody VH6.1 - VL3 (antibody, V domains shown) VH: QVLLVQSGAEVRTPGASVKIFCKASGYGFTSNVISWVRQSPAQGLEWMGGVIPIVDIANYAQRFKGRLTLTADTSTDTAYMELSSLRSADTAMYYCASTLGLVLDAMDYWGQGTLVTVSS VL: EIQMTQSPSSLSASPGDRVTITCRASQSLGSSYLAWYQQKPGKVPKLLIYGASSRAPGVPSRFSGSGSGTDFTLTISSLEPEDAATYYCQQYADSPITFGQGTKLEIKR : -0.37

Briefly, log10(TGFb1 IC50 (SMAD3 phosphorylation in CMVICs, AlphaLISA)) measured for Felinized anti-TGFβ1,2,3 antibody VH2.2 - VL7 (antibody, V domains shown) VH: QVLLVQSGADVRKPGASVKIFCKASGYTFSSNVMHWVRQTPAQGFEWMGSVIPIVDIATYARRFQGRLVLTADTSTNTAYMELRSLKSADTAVYYCARTLGLVLDAMDYWGQGSLVTVSS VL: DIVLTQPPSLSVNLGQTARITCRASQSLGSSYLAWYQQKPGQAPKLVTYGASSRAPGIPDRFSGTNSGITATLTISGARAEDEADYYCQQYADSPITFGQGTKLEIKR : 0.66

Briefly, log10(TGFb1 IC50 (SMAD3 phosphorylation in CMVICs, AlphaLISA)) measured for Caninized anti-TGFβ1,2,3 antibody VH3.6 - VL2 (antibody, V domains shown) VH: EVQLVQSAAEVKKPGASVKVSCKTSGYIFISNVISWVRQAPGQGLEWMGGVIPIVDIANYAQRFKGRVTITADESTSTTYMELSSLRSEDTAVYYCASTLGLVLDAMDYWGQGTLVTVSS VL: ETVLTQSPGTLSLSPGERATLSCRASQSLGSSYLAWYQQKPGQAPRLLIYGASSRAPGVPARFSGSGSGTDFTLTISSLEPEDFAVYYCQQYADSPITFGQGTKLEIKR : -1.24

Briefly, log10(TGFb1 IC50 (SMAD3 phosphorylation in CMVICs, AlphaLISA)) measured for Felinized anti-TGFβ1,2,3 antibody VH3.2 - VL7 (antibody, V domains shown) VH: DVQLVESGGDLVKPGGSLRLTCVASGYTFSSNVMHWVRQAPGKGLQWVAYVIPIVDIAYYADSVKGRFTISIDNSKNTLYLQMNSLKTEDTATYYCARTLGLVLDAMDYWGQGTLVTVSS VL: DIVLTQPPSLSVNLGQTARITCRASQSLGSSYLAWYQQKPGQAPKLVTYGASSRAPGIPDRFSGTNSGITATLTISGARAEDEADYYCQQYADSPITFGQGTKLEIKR : -0.86
